This collection of values is drawn from PubChem BioAssay (NCI).

- Test system: UACC-62 melanoma
- measurement.description: NCI-60 one-dose screen, 48 h (100 = growth as untreated, 0 = no growth, -100 = all killed)
- measurement.conditions: 10 µM unless noted
Compounds without any hit were thinned out: in the full panel of roughly 83,000, 20% have a hit. Active and inactive are the calls of the source. Rule for the calls: active = growth percent below 10; inactive = the rest.

>  <compound>
COc1cc(C2C(C#N)=C(N)OC3=C2C(=O)c2ccccc2C3=O)cc(OC)c1O (stereo not given)

>  <target.or.system>
UACC-62 melanoma

>  <growth>
36.9% (inactive)

$$$$
>  <compound>
O=c1oc2ccc(I)cc2c(=O)n1-c1ccc(Br)cc1F

>  <target.or.system>
UACC-62 melanoma

>  <growth>
-14.7% (active)

$$$$
>  <compound>
CCCN1CCN(c2ccc3nc(-c4ccc5nc(-c6cc(OC)ccc6OC)[nH]c5c4)[nH]c3c2)CC1

>  <target.or.system>
UACC-62 melanoma

>  <growth>
110% (inactive)

$$$$
>  <compound>
O=C1c2cc(Cl)ccc2Oc2cc([N+](=O)[O-])ccc2N1c1ccc(F)cc1F

>  <target.or.system>
UACC-62 melanoma

>  <growth>
81.2% (inactive)

$$$$
>  <compound>
Cc1cc(Nc2ccc(OCc3ccccc3)cc2)nc2cc(O)ccc12

>  <target.or.system>
UACC-62 melanoma

>  <growth>
71.7% (inactive)

$$$$
>  <compound>
O=C(c1nc2ccccc2[nH]1)C1[C@@H](c2cccc(O)c2)C2CC3CCCCC3N2[C@@]12C(=O)Nc1cc(Cl)ccc12 (stereo not given in full)

>  <target.or.system>
UACC-62 melanoma

>  <growth>
47.6% (inactive)

$$$$
>  <compound>
CC(C)CCOc1ccc(-c2n[nH]c(C(F)(F)F)c2-c2cncc(C#N)c2)c(O)c1

>  <target.or.system>
UACC-62 melanoma

>  <growth>
17.5% (inactive)

$$$$
>  <compound>
O=Cc1cc2ccccc2nc1Nc1nccs1

>  <target.or.system>
UACC-62 melanoma

>  <growth>
84.5% (inactive)

$$$$
>  <compound>
O=C(Nc1ccc(F)c(Cl)c1)Nc1ccc(Cl)c(Cl)c1

>  <target.or.system>
UACC-62 melanoma

>  <growth>
58.9% (inactive)

$$$$
>  <compound>
COC(=O)C1(C)COP(=O)(Nc2ccc(OC)cc2)OC1 (stereo not given)

>  <target.or.system>
UACC-62 melanoma

>  <growth>
108% (inactive)

$$$$
>  <compound>
Cn1c(/C=C(\C#N)c2cccc(C(F)(F)F)c2)nc2c(N3CCOCC3)nc(Cl)nc21

>  <target.or.system>
UACC-62 melanoma

>  <growth>
-81.1% (active)

$$$$
>  <compound>
COC(=O)C1=C(C)NC(C)=C(C(=O)OC)C(N2C(=O)CCC2=O)C1 (stereo not given)

>  <target.or.system>
UACC-62 melanoma

>  <growth>
83.8% (inactive)

$$$$
>  <compound>
CCOc1cc(Cl)c(C(C)NC(=O)c2cccc(OC)c2)cc1OCC (stereo not given)

>  <target.or.system>
UACC-62 melanoma

>  <growth>
-76% (active)

$$$$
>  <compound>
Cn1cc([C@@H]2Nc3ccc4[nH]ncc4c3[C@H]3[C@H]4CCC(C4)[C@H]32)c(C(F)(F)F)n1

>  <target.or.system>
UACC-62 melanoma

>  <growth>
30.4% (inactive)

$$$$
>  <compound>
COc1cc(C=C2C(=O)N(C)C(=O)N(C)C2=O)cc(CN2CCCCC2)c1O

>  <target.or.system>
UACC-62 melanoma

>  <growth>
96.8% (inactive)

$$$$
>  <compound>
COc1cc(NC(=O)CCSc2nc3ccccc3c(=O)n2CCc2ccccn2)cc(OC)c1OC

>  <target.or.system>
UACC-62 melanoma

>  <growth>
84% (inactive)

$$$$
>  <compound>
Nc1ncnc(N)c1NC(=O)c1ccc(OCc2ccccc2)cc1

>  <target.or.system>
UACC-62 melanoma

>  <growth>
99% (inactive)

$$$$
>  <compound>
CN=c1ccc2nc3ccc(N)cc3sc-2c1

>  <target.or.system>
UACC-62 melanoma

>  <growth>
15.8% (inactive)

$$$$
>  <compound>
COc1ccc(Cn2cc(Cn3c(=O)c(-c4nc5ccccc5[nH]4)cc4ccccc43)nn2)c(OC)c1OC

>  <target.or.system>
UACC-62 melanoma

>  <growth>
23.2% (inactive)

$$$$
>  <compound>
CCCCCCCCCCCCCCn1cc(C2=C(c3coc4ccc(OC)cc34)C(=O)NC2=O)c2ccccc21

>  <target.or.system>
UACC-62 melanoma

>  <growth>
95.9% (inactive)

$$$$
